# experiment_summary: Cytotoxicity against mouse B16F10 cells after 72 hrs by alamar blue assay
# Type: functional, cell-based
# measurement_conditions: B16-F10, 72 h
pIC50: −log10 of the molar value.

sample_smiles	bound_sign	pIC50
C=C1C[C@@]23CC[C@@H]4C(C)(C)[C@H](OC(C)=O)CC[C@@]4(C)[C@@H]2CC[C@H]1C3	<	4.12
C=C1C[C@@]23CC[C@@H]4[C@](C)(C=O)[C@H](O)CC[C@@]4(C)[C@@H]2CC[C@H]1C3	=	4.16
C=C1C[C@@]23CC[C@@H]4[C@](C)(CO)[C@H](O)CC[C@@]4(C)[C@@H]2CC[C@H]1C3	=	4.09
C=C1C[C@@]23CC[C@@H]4C(C)(C)[C@H](O)CC[C@@]4(C)[C@@H]2CC[C@H]1C3	=	4.18
C=C1C[C@@]23CC[C@H]4[C@@](C)(CCC[C@@]4(C)C(=O)O)[C@@H]2CC[C@@H]1C3	=	4.26
COc1cccc2c1C(=O)c1c(O)c3c(c(O)c1C2=O)C[C@@](O)(C(=O)CO)C[C@@H]3O[C@H]1C[C@H](N)[C@H](O)[C@H](C)O1	=	5.37
C=C1C[C@@]23CC[C@H]4[C@@](C)(CC[C@@H](O)[C@@]4(C)C(=O)O)[C@@H]2CC[C@H]1C3	<	4.10
